Target system: N-his8-TEV-hPARG (389-976) (Homo sapiens, UniProt Q86W56)
Construct: N-his8-TEV-hPARG (389-976); His8 (N); TEV protease cleavage site (N)
Sequence (Q86W56 389-976): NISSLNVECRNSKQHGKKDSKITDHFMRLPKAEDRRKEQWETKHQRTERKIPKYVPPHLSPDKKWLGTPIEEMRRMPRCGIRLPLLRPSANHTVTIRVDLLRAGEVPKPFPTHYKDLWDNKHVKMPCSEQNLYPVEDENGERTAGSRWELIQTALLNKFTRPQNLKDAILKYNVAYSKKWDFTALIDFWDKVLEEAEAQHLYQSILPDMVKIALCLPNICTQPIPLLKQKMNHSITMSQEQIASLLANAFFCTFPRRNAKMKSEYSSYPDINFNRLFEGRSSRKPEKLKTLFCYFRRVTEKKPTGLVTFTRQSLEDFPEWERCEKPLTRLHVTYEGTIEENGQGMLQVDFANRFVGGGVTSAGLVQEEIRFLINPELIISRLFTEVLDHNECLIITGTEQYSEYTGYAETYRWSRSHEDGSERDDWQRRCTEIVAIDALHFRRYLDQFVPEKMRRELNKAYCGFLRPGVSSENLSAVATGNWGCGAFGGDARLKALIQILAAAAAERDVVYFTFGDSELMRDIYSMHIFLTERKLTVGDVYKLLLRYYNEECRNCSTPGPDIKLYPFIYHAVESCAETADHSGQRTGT
Method description: PARG Biochemical Enzymatic Assay (PARG inhibition HTRF assay)
Setup conditions: 62.5 pM PARG, 5 nM Biotin-Parylated PARP1 substrate, 60 minutes preincubation, 10 minutes reaction at 23 °C
pIC50: −log10 of the molar value.
Consider the following compounds; for each one, report its pIC50.

# compound N#CC1(NS(=O)(=O)c2cc(C3=CCN(C(=O)C4CC4)CC3)n3ncc(-c4nnc(C(F)F)s4)c3c2)CC1 [Example 6] ; its pIC50 = > 7.00

# compound O=S(=O)(NC1(C(F)F)CC1)c1cc(N2CCC3(CC2)COC3)c2ncc(-c3nnc(C(F)F)s3)n2c1 [Example 37] ; its pIC50 = > 7.00

# compound CC1(NS(=O)(=O)c2cc(-n3cc(C4(C#N)CC4)cn3)c3cnn(-c4nnc(C5(O)CCC5)s4)c3c2)CC1 [Example 33] ; its pIC50 = 6.30 to 7.00

# compound N#CC1(NS(=O)(=O)c2cc3c(-c4nnc(C(F)F)s4)ncn3c(N3CCC4(CC3)COC4)c2F)CC1 [Example 41] ; its pIC50 = > 7.00
